Target sequence: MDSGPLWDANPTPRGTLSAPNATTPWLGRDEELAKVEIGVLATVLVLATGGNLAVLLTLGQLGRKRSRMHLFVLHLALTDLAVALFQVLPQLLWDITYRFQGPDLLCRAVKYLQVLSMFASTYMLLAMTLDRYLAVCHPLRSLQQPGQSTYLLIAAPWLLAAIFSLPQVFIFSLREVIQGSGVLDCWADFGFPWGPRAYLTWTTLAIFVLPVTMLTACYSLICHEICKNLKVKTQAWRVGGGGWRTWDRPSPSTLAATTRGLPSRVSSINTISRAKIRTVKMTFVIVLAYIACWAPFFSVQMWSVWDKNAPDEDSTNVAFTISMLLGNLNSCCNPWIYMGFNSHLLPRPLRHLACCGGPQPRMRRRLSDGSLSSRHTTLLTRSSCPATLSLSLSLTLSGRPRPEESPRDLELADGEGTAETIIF
Label MET when IC50 is strictly below 3 nM; at or above that, label NOT MET.

Request: Confirm or reject: IC50 of COc1ccc(S(=O)(=O)N2C(=O)C(O[C@@H](C)C(=O)N(C)C)(c3ccccc3OC)c3cc(Cl)ccc32)c(OC(F)(F)F)c1 (single isomer, unassigned) lies strictly below 3 nM
Response: NOT MET

Request: Confirm or reject: IC50 of COc1ccc(S(=O)(=O)N2C(=O)C(c3cc(C)ccc3OC)(N3CCCC[C@H]3C(=O)N(C)C)c3cc(Cl)ccc32)c(OC(F)(F)F)c1 (single isomer, unassigned) lies strictly below 3 nM
Response: MET

Request: Confirm or reject: IC50 of COc1ccc(S(=O)(=O)N2C(=O)C(c3cc(CN(C)C)ccc3OC)(N3C[C@H](O)C[C@H]3C(=O)N(C)C)c3cc(Cl)ccc32)c(OC(F)(F)F)c1 (single isomer, unassigned) lies strictly below 3 nM
Response: MET

Request: Confirm or reject: IC50 of COc1ccc(S(=O)(=O)N2C(=O)C(c3cc(-c4ccncc4)ccc3OC)(N3C[C@H](O)C[C@H]3C(=O)N(C)C)c3cc(Cl)ccc32)c(OC(F)(F)F)c1 (single isomer, unassigned) lies strictly below 3 nM
Response: NOT MET

Request: Confirm or reject: IC50 of COc1ccc(S(=O)(=O)N2C(=O)C(c3ccccc3OC)(N3Cc4ccccc4C[C@H]3C(=O)N(C)C)c3cc(Cl)ccc32)c(OC(F)(F)F)c1 (single isomer, unassigned) lies strictly below 3 nM
Response: NOT MET
